Target system: Transient receptor potential cation channel subfamily A member 1 (Homo sapiens, UniProt O75762)
Sequence (O75762 whole entry): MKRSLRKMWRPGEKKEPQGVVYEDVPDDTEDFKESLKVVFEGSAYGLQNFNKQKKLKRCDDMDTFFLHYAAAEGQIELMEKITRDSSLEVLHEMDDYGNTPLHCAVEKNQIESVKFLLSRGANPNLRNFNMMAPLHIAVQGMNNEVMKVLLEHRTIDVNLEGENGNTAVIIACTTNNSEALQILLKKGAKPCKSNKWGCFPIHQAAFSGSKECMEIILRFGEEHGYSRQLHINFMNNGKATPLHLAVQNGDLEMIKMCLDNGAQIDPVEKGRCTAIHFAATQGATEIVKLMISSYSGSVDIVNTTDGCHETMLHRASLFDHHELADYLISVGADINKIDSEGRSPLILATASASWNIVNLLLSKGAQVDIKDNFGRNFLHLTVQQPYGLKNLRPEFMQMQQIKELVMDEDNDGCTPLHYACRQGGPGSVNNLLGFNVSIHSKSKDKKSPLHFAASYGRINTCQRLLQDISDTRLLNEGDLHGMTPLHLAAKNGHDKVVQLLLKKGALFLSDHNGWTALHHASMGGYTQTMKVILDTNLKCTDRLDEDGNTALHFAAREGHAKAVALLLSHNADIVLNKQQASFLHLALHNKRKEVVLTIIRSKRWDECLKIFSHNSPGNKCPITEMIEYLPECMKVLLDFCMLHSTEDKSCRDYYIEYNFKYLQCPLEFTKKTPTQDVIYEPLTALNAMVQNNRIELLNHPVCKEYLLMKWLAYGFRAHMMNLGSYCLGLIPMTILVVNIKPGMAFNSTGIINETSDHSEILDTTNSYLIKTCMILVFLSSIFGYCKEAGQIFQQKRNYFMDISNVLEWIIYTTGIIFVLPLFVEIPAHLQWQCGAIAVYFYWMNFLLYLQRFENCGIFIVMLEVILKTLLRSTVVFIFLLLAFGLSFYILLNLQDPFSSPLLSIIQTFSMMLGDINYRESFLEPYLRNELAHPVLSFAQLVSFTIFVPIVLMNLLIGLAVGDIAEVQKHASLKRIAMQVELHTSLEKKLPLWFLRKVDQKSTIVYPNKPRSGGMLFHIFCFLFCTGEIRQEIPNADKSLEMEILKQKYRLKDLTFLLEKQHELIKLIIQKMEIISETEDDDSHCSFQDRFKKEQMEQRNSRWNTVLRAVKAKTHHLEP
Test method notes: FLIPR Assay: The IC50 (effective concentration) of compounds on the human and rat TRPA1 channels were determined using a FLIPR Tetra instrument. CHO cells expressing TRPA1 were plated into 384-well plates, incubated overnight at 37° C., and loaded with BD calcium indicator dye for 1 hr at 37° C. followed by 15 minutes at room temperature. The assay buffer was Hank's Balanced Salt Solution (HBSS) containing 20 mM HEPES (pH readjusted to 7.4) along with 0.02% BSA.Following dye load and plate cool down, compounds were added to the cells using FLIPR Tetra. Plates were then incubated with compounds for 20 minutes at room temperature prior to adding agonist. […] Fixing the Hill coefficient will generally reduce variability of the IC50 determination. The IC50 results were individually examined to make sure the MIN and MAX points were set correctly prior to validation of the results.
pIC50: −log10 of the molar value.

[
  {
    "Test smiles": "Cn1nc(C#N)c2ncn(Cc3nn(CCc4ccc(Cl)cc4)c(=O)o3)c(=O)c21",
    "pIC50": 7.00
  }
]
